Target: C-linker/CNBD of mouse HCN2 (mHCN2, residues 443–645) (Mus musculus)
Assay: SPR, immobilized mHCN2 C-linker/CNBD on NTA chip
Settings: read-out: binding affinity (fit of representative dose response plot); SPR, single surface, Fig 1E
measure: pKd
Bear in mind: pKd is minus log10 of a mol/L concentration; give just that figure.

The compound listed as Nc1nc2c(ncn2[C@@H]2O[C@@H]3COP(=O)(O)O[C@H]3[C@H]2O)c(=O)[nH]1 [cGMP] has a reported pKd of 4.91

* * *

Target: C-linker/CNBD of mouse HCN2 (mHCN2, residues 443–645) (Mus musculus, UniProt O88703)
Experiment: SPR, immobilized mHCN2 C-linker/CNBD on NTA chip
Conditions: read-out: Kd (averaged binding affinity); SPR, averaged over different NTA chips, 25 °C, Hill fit
measure: Kd (µM)
All answers are understood in µM, so give the number only.

Entry under test: Nc1nc2c(ncn2[C@@H]2O[C@@H]3COP(=O)(O)O[C@H]3[C@H]2O)c(=O)[nH]1 [cGMP] . Its Kd was 13.4

* * *

Molecular target: mHCN2-L586W C-linker/CNBD (Mus musculus, UniProt O88703, L586W)
Construct: mouse HCN2 (mHCN2, residues 443–645); made in house; host or cells: E. coli BL21 (DE3)
Sequence (O88703 443-645 L586W): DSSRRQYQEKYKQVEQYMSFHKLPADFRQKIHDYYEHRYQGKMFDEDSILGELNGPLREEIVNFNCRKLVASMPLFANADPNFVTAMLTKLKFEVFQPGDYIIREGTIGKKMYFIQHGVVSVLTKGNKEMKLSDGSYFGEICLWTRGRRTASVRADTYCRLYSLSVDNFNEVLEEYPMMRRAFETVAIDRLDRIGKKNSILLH
Test: SPR, immobilized mHCN2-L586W C-linker/CNBD on NTA chip
Assay type: binding
Conditions: single surface, Fig 2D, read-out: binding affinity (fit of representative dose response plot)
pKd: −log10 of the molar value.
measure: pKd

Query Nc1nc2c(ncn2[C@@H]2O[C@@H]3COP(=O)(O)O[C@H]3[C@H]2O)c(=O)[nH]1 yields pKd of ≤ 4.15

* * *

Biological target: C-linker/CNBD of human HCN4 (hHCN4, residues 521–723) (Homo sapiens, UniProt Q9Y3Q4)
Sequence (Q9Y3Q4 521-723): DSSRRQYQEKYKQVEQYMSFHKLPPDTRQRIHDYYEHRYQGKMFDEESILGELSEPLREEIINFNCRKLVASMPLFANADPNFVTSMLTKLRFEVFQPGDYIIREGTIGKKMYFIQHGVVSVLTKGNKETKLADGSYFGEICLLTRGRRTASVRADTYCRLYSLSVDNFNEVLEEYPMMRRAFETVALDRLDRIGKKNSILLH
Assay: SPR, immobilized hHCN4 C-linker/CNBD on NTA chip
Conditions: read-out: Kd (averaged binding affinity); SPR, averaged over different NTA chips
measure: pKd
Bear in mind: pKd is minus log10 of a mol/L concentration; give just that figure.

For reference, reported pKd for Nc1nc2c(ncn2[C@@H]2O[C@@H]3COP(=O)(O)O[C@H]3[C@H]2O)c(=O)[nH]1 stands at 5.26

* * *

Molecular target: C-linker/CNBD of human HCN4 (hHCN4, residues 521–723) (Homo sapiens, UniProt Q9Y3Q4)
Assay: SPR, immobilized hHCN4 C-linker/CNBD on NTA chip
Details: read-out: binding affinity (fit of representative dose response plot); SPR, single surface, Fig 3C
measure: Kd (µM)
Note: unit µM is implicit; provide only the numeric part.

Reported Kd (C-linker/CNBD of human HCN4 (hHCN4, residues 521–723) (Homo sapiens, UniProt Q9Y3Q4)) for entry Nc1nc2c(ncn2[C@@H]2O[C@@H]3COP(=O)(O)O[C@H]3[C@H]2O)c(=O)[nH]1 [cGMP] is 5.6
